I'd appreciate it if you could supply relative growth in counter assay values for the items below.
Tested on: HEK293FT dCK*-only
Measurement Description: relative growth in counter assay (no AraC = 100%, AraC + DMSO = 0%); higher = more growth rescue independent of IKZF1
Condition Info: compound concentration: 5 uM; AraC concentration: 0.3 uM; overnight pretreatment + 4 days AraC
Structures can show the parent of a compound that is named as a salt.

Give the measured relative growth in counter assay of CN(C)CCCN1c2ccccc2Sc2ccc(Cl)cc21 . -0.83%

Value sought for every listed compound: relative growth in counter assay.
1. COc1cc(C(=O)NS(=O)(=O)c2ccccc2C)ccc1Cc1cn(C)c2ccc(NC(=O)OC3CCCC3)cc12 [Zafirlukast (Accolate)]
2. Clc1ccc(CSC(Cn2ccnc2)c2ccc(Cl)cc2Cl)cc1 (centres undefined)

1. 0.38%
2. -4.03%

Parameter requested: relative growth in counter assay. Apply to each item below.
1. CN(C)CCC=C1c2ccccc2CCc2ccccc21 [Amitriptyline HCl]
2. CN(CC3)C[C@@H](O)[C@H]3[C@]1=C(OC(C4=CC=CC=C4Cl)=CC2=O)C2=C(O)C=C1O [alvocidib]
3. CN(Cc1cnc2nc(N)nc(N)c2n1)c1ccc(C(=O)N[C@@H](CCC(=O)O)C(=O)O)cc1
4. COc1ccc(NS(=O)(=O)c2ccc(N=Nc3ccc(O)c(C(=O)O)c3)cc2)nn1 [salazodine]
5. CCCCCCCCN=c1ccn(CCCCCCCCCCn2ccc(=NCCCCCCCC)cc2)cc1 [Octenidine Dihydrochloride]
6. COc1c(C)c2c(c(O)c1C/C=C(\C)CCC(=O)O)C(=O)OC2

["6.15%", "-35.2%", "-31.2%", "6.32%", "-35.3%", "-31.1%"]
